Test system: LXFL 529
protocol.notes: NCI tumour cell line growth inhibition, 48 h
Activity calls are given as the source filed them. Rule as the data show it: active = GI50 up to about 1.1 µM and inactive = higher.
Labels: active, inactive

compound: Cc1c(-c2coc(-c3ccc([N+](=O)[O-])cc3)n2)c(=O)n(-c2ccccc2)n1C
category: inactive
//
compound: CC1(C)C(=NNC(=O)C[N+](C)(C)C)C(C)(C)C1=NNC(=O)C[N+](C)(C)C
category: inactive
//
compound: CC(C)(C)CC(C)(C)NCC(O)COc1ccc(C(C)(C)c2ccc(OCC(O)CNC(C)(C)CC(C)(C)C)cc2)cc1 (stereo not given)
category: active
//
compound: C[C@H](O)CCC(=O)c1ccoc1
category: inactive
//
compound: Cc1ccc(C(=O)NCCN(C)C)c2nc3ccccc3cc12
category: inactive

###

Tested on: HT-29
protocol.notes: NCI tumour cell line growth inhibition, 48 h
Active and inactive are the calls of the source. No stated cut-off is given here; in the data, active = GI50 up to about 1.1 µM and inactive = higher.
quantity.measured: GI50

molecule: O=C(O)/C=C/C(=O)Nc1cccc2c1-c1ccccc1C2=O
quantity.measured: GI50
reported.measurement: 22.3 µM (inactive)
//
molecule: NC1=C(Cl)C(=O)c2ccccc2C1=O
quantity.measured: GI50
reported.measurement: 4.99 µM (inactive)
//
molecule: Cc1cc(O)cc2c1O[C@@]1(C)CCC3[C@@]4(C)CC[C@H](O)C(C)(C)C4CC[C@@]3(C)[C@H]1C2 (stereo not given in full)
quantity.measured: GI50
reported.measurement: 13.3 µM (inactive)
//
molecule: N/N=C(\c1nc2ccc([N+](=O)[O-])cc2nc1O)C(O)c1ccc(Cl)c(Cl)c1 (stereo not given)
quantity.measured: GI50
reported.measurement: > 100 µM (inactive)
//
molecule: COc1ccc(CC2OC3(CCCCC3)CC3CCCCN32)cc1 (stereo not given)
quantity.measured: GI50
reported.measurement: 57.4 µM (inactive)
//
molecule: CCOC(=O)C1=C(C)N2CCCOC2(C)C(C(=O)OC)C1c1cccc([N+](=O)[O-])c1 (stereo not given)
quantity.measured: GI50
reported.measurement: > 100 µM (inactive)
//
molecule: CCN(CC)CC[S+]([O-])c1c2cc(OC)ccc2nc2ccc(OC)cc12 (stereo not given)
quantity.measured: GI50
reported.measurement: 3.44 µM (inactive)
//
molecule: Cc1ccc(/C=N\NC(=O)c2ccncc2)s1
quantity.measured: GI50
reported.measurement: > 100 µM (inactive)
//
molecule: CCOC(=O)c1ccc(C)c(/N=N/N(C)C)c1
quantity.measured: GI50
reported.measurement: > 100 µM (inactive)
//
molecule: Oc1c(Cl)cc2cc1-c1cc(cc(Cl)c1O)CCc1c(cc(Cl)c(O)c1Cl)-c1cc(Cl)c(c(Cl)c1O)/C=C\2
quantity.measured: GI50
reported.measurement: 11.4 µM (inactive)

###

Test system: HL-60
protocol.notes: NCI tumour cell line growth inhibition, 48 h
Calls of active or inactive are those of the source. Rule as the data show it: active = GI50 up to about 1.1 µM and inactive = higher.
Outcomes: active, inactive

molecule: COc1ccc2c(c1)Oc1cc(O)ccc1[C@@H]2c1ccccc1C(=O)NC(C)c1ccccc1 (some centres not stated)
category: inactive
--
molecule: CS(=O)(=O)OC1CN2CCC1CC2 (configuration not stated)
category: inactive
--
molecule: O=C(c1ccccc1)C1S(=O)(=O)OCCOS1(=O)=O
category: inactive
--
molecule: O=C(Cn1c2c(c3ccccc31)CCCC2)N1CCOCC1
category: inactive
--
molecule: O=S(=O)(/C=C/C=C/[S+]([O-])c1ccccc1)c1ccccc1 (configuration not stated)
category: active
--
molecule: CCOC(=O)c1cc(-n2nnc3ccccc32)cn1C
category: inactive
--
molecule: Cc1ccc(NC(=O)CC/C(CC(=O)C(C)(C)C)=N\NC(=O)C[n+]2ccccc2)cc1C
category: inactive
--
molecule: CCc1cccc(NC(=O)c2cc(/C=C/c3ccccc3)nc(S)n2)c1
category: inactive
--
molecule: C[C@H](O)CCC(=O)c1ccoc1
category: inactive
--
molecule: Cc1cccc2c(=O)c3cccc(CC(=O)O)c3oc12
category: inactive
--
molecule: COc1cc(C2SC(=N)Nc3c2c(C)nn3C(=O)c2ccc(Cl)cc2)ccc1O (configuration not stated)
category: inactive
--
molecule: CCOc1ccc(NC(=O)C2=C(C)NC(C)=C(C(=O)Nc3ccc(OCC)cc3)C2c2ccc([N+](=O)[O-])cc2)cc1
category: inactive
--
molecule: CC1OC(n2cc(F)c(=O)[nH]c2=O)C(O[Si](C)(C)C(C)(C)C)C1O[Si](C)(C)C(C)(C)C (configuration not stated)
category: inactive
--
molecule: COC(=O)c1c(C)c2c(c(C)c1O)OC(=O)c1c(C)cc(O)c(C=O)c1O2
category: inactive
--
molecule: NCCCc1ccc2oc3ccccc3c2c1
category: inactive
--
molecule: Nc1ncc2ncn(C3CCC(CO)O3)c2n1 (configuration not stated)
category: inactive
--
molecule: O=C1Nc2cccc(Cl)c2/C1=C\c1c(Cl)nc2sccn12
category: inactive
--
molecule: CC1=NN(C(=O)CC(=O)Nc2ccccc2)C(=O)C1/N=N/c1ccc(C(=O)O)cc1 (configuration not stated)
category: inactive
--
molecule: N#CC(C(=O)CCC(=O)Nc1ccc(Cl)c(Cl)c1)c1ccc(Cl)cc1 (configuration not stated)
category: inactive
--
molecule: COC(=O)C1CCC(=O)N1C(c1cc(OC)c(OC)c(OC)c1)c1cc(OC)c(OC)c(OC)c1 (configuration not stated)
category: inactive
--
molecule: COc1cc(C=C2C(=O)NC(=O)NC2=O)cc(OC)c1OC
category: inactive
--
molecule: CC(=O)c1c2c(cc3c1CC1(C3)Cc3cc4c(c(C(=O)O)c3C1)CCCC4)CCCC2.CC(N)c1ccccc1 (configuration not stated)
category: inactive

###

System: MCF7
protocol.notes: NCI tumour cell line growth inhibition, 48 h
The source made the active and inactive calls. Cut-off read from the data, not from the text of the source: active = GI50 up to about 1.1 µM and inactive = higher. Non-standard residues stand in square brackets, D forms with d. Residues, ends and D or L forms follow the SMILES beside them. ξ: configuration not given here. ξLac(3-iPr) = CC(C)CC(O)C(=O)O; NMeV = CN[CH](C(=O)O)C(C)C; NMeA = CN[CH](C)C(=O)O; βAla = NCCC(=O)O

molecule: Cc1cccc2c(=O)c3cccc(CC(=O)O)c3oc12
GI50: > 100 µM (inactive)

molecule: COc1cc2c(c(OC)c1OC)C(=O)[C@H]1OC(=O)N[C@@H]21
GI50: > 100 µM (inactive)

molecule: N#CC1=C2Sc3ccccc3N2[C@H](c2ccccc2)[C@H]2COC(=O)[C@@H]12
GI50: 31 µM (inactive)

molecule: CCC(C)C1NC(=O)C2CCCN2C(=O)C(CC(C)C)OC(=O)CCNC(=O)C(C)N(C)C(=O)C(C(C)C)N(C)C1=O (stereo unspecified) (cyclo([ξLac(3-iPr)]PI[NMeV][NMeA][βAla]); configuration not given here)
GI50: 2.64 µM (inactive)

molecule: CCCCc1c2c(c(C)c3c1C(=O)OC3)Oc1ccccc1O2
GI50: 1.63 µM (inactive)

molecule: C=C1C(=O)CC2C1CC(=O)/C(C)=C/CCC(C)(O)C2O (stereo unspecified)
GI50: 0.249 µM (active)

molecule: CC(C)NC(=O)OCc1c(CO)c2c(n1C)-c1ccccc1CC2
GI50: 37.6 µM (inactive)

molecule: CCc1ccc2c(c1)/C(=C1/Nc3ccccc3/C1=N/O)C(=O)N2
GI50: 1.66 µM (inactive)

molecule: O=C1Nc2cccc(Cl)c2/C1=C\c1c(Cl)nc2sccn12
GI50: > 100 µM (inactive)

molecule: NCCCc1ccc2oc3ccccc3c2c1
GI50: 18.7 µM (inactive)

molecule: COc1cc(/C=C/C2=NN(c3cccc(S(=O)(=O)O)c3)C3(C2)SCC(=O)N3c2nc3ccccc3s2)cc(OC)c1OC (stereo unspecified)
GI50: 36.9 µM (inactive)

molecule: ONCCCn1cnc2c(NC3CC3)ncnc21
GI50: > 100 µM (inactive)

molecule: CCCC(Sc1nc(N)nc2nc[nH]c12)C(=O)O (stereo unspecified)
GI50: 62.4 µM (inactive)

molecule: CC(/C=N\NC(=S)N(C)C)=N/NC(=S)N(C)C
GI50: 0.759 µM (active)

molecule: C[C@@]12C[C@@H](c3ccccc3O1)N1CCSC1=N2
GI50: > 100 µM (inactive)

molecule: CSc1ccccc1P(CCP(c1ccccc1SC)c1ccccc1SC)c1ccccc1SC
GI50: 1.95 µM (inactive)

molecule: O=C(N[C@@H](c1ccccc1)[C@@H](O)C(=O)OCc1ccc([N+](=O)[O-])cc1)c1ccccc1
GI50: 84.5 µM (inactive)

molecule: COc1cc(/C=C/c2ccc(OC)c(OC)c2)oc(=O)c1
GI50: > 250 µM (inactive)

molecule: Clc1c2nc3ccccc3c-2[nH]c2ccccc12
GI50: 6.28 µM (inactive)

molecule: CC1(C)OCC(C2OC(OC(=O)c3ccc([N+](=O)[O-])cc3)C3OC(C)(C)OC23)O1 (stereo unspecified)
GI50: > 100 µM (inactive)

molecule: O=C(O)CCCN/C(=C1\C(=O)C(=O)N(c2ccccc2)C1=O)c1ccccc1
GI50: > 100 µM (inactive)

molecule: C[C@]12CC[C@@H]3c4ccc(O)cc4CC[C@H]3[C@@H]1CC[C@@H]2OC(=O)CCC1CCCC1 [ESTRADIOL CYPIONATE]
GI50: 17.1 µM (inactive)

molecule: CC(C)(Sc1cc(C(C)(C)C)c(O)c(C(C)(C)C)c1)Sc1cc(C(C)(C)C)c(O)c(C(C)(C)C)c1 [PROBUCOL]
GI50: > 100 µM (inactive)

molecule: N=C(N)SCCON1C(=O)c2ccccc2C1=O
GI50: > 100 µM (inactive)

molecule: CCC/C(Cl)=N/OC(NC(=O)OCC)(C(F)(F)F)C(F)(F)F
GI50: 23.6 µM (inactive)

molecule: C/C(=N\NC(=S)N(C)C)c1ccccn1
GI50: < 0.01 µM (active)

molecule: CC1=NN(C(=O)CC(=O)Nc2ccccc2)C(=O)C1/N=N/c1ccc(C(=O)O)cc1 (stereo unspecified)
GI50: > 100 µM (inactive)

molecule: N=C(N)NNC(=O)C(=O)O
GI50: > 100 µM (inactive)

molecule: COc1c(-c2ccc(O)c(O)c2)oc2c(O)c(O)cc(O)c2c1=O
GI50: 28.2 µM (inactive)

molecule: COc1cc2c(cc1OCCCC(=O)Nc1cc(C(=O)NCCCN(C)C)n(C)n1)N=CC1CCCN1C2=O (stereo unspecified)
GI50: 10.1 µM (inactive)

molecule: NC1=NC(=O)[C@H](Cc2c[nH]c3ccccc23)N1C(=O)OCc1ccccc1
GI50: 81.8 µM (inactive)

molecule: COc1ccc2o/c(=N/c3ccccc3)c(C(N)=O)cc2c1
GI50: 45.9 µM (inactive)

molecule: Cc1ccc2nc(-c3ccc(NC(=O)c4ccc(N)cc4)c(S(=O)(=O)O)c3)sc2c1
GI50: > 100 µM (inactive)

molecule: COc1ccc(CC2OC3(CCCCC3)CC3CCCCN32)cc1 (stereo unspecified)
GI50: 72.9 µM (inactive)

molecule: CC(=O)N1N=C(c2ccc3ccccc3c2O)CC1C(=O)c1ccco1 (stereo unspecified)
GI50: 21.4 µM (inactive)

molecule: COC(=O)c1c(C)c2c(c(C)c1O)OC(=O)c1c(C)cc(O)c(C=O)c1O2
GI50: > 100 µM (inactive)

molecule: Nc1ccc(Nc2cc(O)nc(O)n2)cc1
GI50: > 100 µM (inactive)

molecule: CC1Cc2cc(O)c(O)cc2-c2cc(O)c(O)cc2CC1C (stereo unspecified)
GI50: 12.1 µM (inactive)

molecule: CC/C=C/C(/C=C/C[C@]1(CC)C[C@H](CC)[C@H](CC(=O)O)OO1)CC (stereo partly specified)
GI50: 2.51 µM (inactive)

molecule: CN(C)c1ccc(/C=N/c2ccc(-c3nc4ccccc4[nH]3)cc2)cc1
GI50: 46.9 µM (inactive)

molecule: CC(C(O)Cc1ccccc1)N(C)/N=N/c1ccc([N+](=O)[O-])cc1 (stereo unspecified)
GI50: 24 µM (inactive)
